Tested on: NOMO1
protocol text: cell viability relative to DMSO control; higher = less cytotoxic
measurement setup: RPMI 5 mM glucose + 10% FBS; 48 h; 0.00702 µM
test readout: cell viability (%)
Just the number please, in %, no unit attached.

Check the records and state cell viability for CN1/C=C(\N=C(NC2=CC=C(C=C2)C(=O)N3CCOCC3)/C1=O)/C4=C(C)C(=CC=C4)NC(=O)C5=CC=C(C=C5)C(C)(C)C
99.5

Supply measured cell viability of Oc1cc2c(cc1O)C1c3ccc(O)c(O)c3OCC1(O)C2 (centres undefined) in your reply.
101

Quickly give me recorded cell viability for C[C@H](NC(=O)Cc1cc(F)cc(F)c1)C(=O)N[C@@H]1C(=O)N(C)c2ccccc2-c2ccccc21
115

Answer with the recorded cell viability for the molecule listed here: Cc1cc(-c2nnc3n2CCCCC3)c(C)n1-c1ccccc1
109

---

System: SEM cells
protocol text: cell viability relative to DMSO control; higher = less cytotoxic
measurement setup: RPMI 5 mM glucose + 10% FBS; 48 h; 0.000781 µM
test readout: cell viability (%)
Return type: number; implicit unit %.

Identify measured cell viability associated with CCNC(=O)Nc1ccc(-c2nc3c(c(N4CCOC[C@@H]4C)n2)CCN(C2COC2)C3)cc1
105

Hello, please tell me recorded cell viability for this one: O=C(O)c1ccc(-c2c[nH]c3ncc(-c4ccccc4)cc23)cc1C1CCCC1
111

Hello, please tell me recorded cell viability for this one: COc1ccc(C(=O)CC(=O)c2ccc(C(C)(C)C)cc2)cc1
100

Please indicate cell viability recorded for CC(=O)C1=C(O)C2(C)C(=CC1=O)Oc1c(C(C)=O)c(O)c(C)c(O)c12 (stereo not drawn)
99.1

Consider the compound CCOc1cc(/C=C2/C(=O)N(c3ccccc3)N=C2C)cc(Cl)c1OCC(=O)OC . State its measured cell viability.
86.2

State its cell viability: Cn1cnc(-c2cc3nccc(Oc4ccc(NC(=S)NC(=O)Cc5ccccc5)cc4F)c3s2)c1
82.5

Kindly indicate its recorded cell viability. Item: O=[S+]([O-])(CCSSCC[S+](=O)([O-])[O][Na])[O][Na]
117

Annotate the compound CN[C@H]1[C@H](O[C@@H]2[C@H](O[C@@H]3[C@@H](O)[C@@H](O)[C@@H](NC(=N)N)[C@@H](O)[C@H]3NC(=N)N)O[C@H](C)[C@@]2(O)C=O)O[C@@H](CO)[C@@H](O)[C@H]1O with its measured cell viability.
95.1

---

Hi there, I'd appreciate the recorded cell viability for every entry that follows.
Tested on: NOMO1
protocol text: cell viability relative to DMSO control; higher = less cytotoxic
measurement setup: HPLM + 10% dialyzed FBS; 48 h; 0.00702 µM

Quickly give me recorded cell viability for O=C(O)[C@@H](c1ccc(OCc2ccc3ccccc3n2)cc1)C1CCCC1
118%

Return cell viability for the following compound: CCCNCC(O)COc1ccccc1C(=O)CCc1ccccc1 (stereo not drawn)
113%

Determine from records and report cell viability for COc1nccc(-c2c(-c3ccc(F)cc3)ncn2C2CCC(O)CC2)n1 (stereo not drawn)
121%

Name the recorded cell viability of the item O=[S+]([O-])(O)c1ccc2cc(/N=N/c3cc([S+](=O)([O-])O)c4cccnc4c3O)ccc2c1 in your answer.
133%

Please report cell viability for the following compound: O=C(C[C@@H]1C/C=C\CCC(=O)O[C@H](c2ccccc2)CNC1=O)NCc1ccc(Cl)cc1
117%

Supply reported cell viability belonging to this compound: NCCCCCC(=O)O
104%

Return value of cell viability for input CN(c1nccc(=O)[nH]1)C1CCN(c2nc3ccccc3n2Cc2ccc(F)cc2)CC1 , no commentary.
116%

Identify measured cell viability associated with C[C@H](NC(=O)Cc1cc(F)cc(F)c1)C(=O)N[C@@H]1C(=O)N(C)c2ccccc2-c2ccccc21
122%

---

Give measured cell viability for each item. Keep answers brief.
System: NOMO1
protocol text: cell viability relative to DMSO control; higher = less cytotoxic
measurement setup: HPLM + 10% dialyzed FBS; 48 h; 0.19 µM
Your answer should be a plain number; it is taken to be in %.

Provide only the value of recorded cell viability for Cc1cc(SCc2sc(-c3ccc(C(F)(F)F)cc3)nc2C)ccc1OCC(=O)O
110

Give the value of cell viability reported for the following: CCc1ccc(C(=O)Nc2cc(CN3CCN(C)CC3)cc(C(F)(F)F)c2)cc1C#Cc1cnc2ccnn2c1
129

Complete the entry with cell viability for CCCC1=N[N](C)C2=C1\N=C(/NC2=O)C3=CC(=CC=C3OCC)[S+]([O-])(=O)N4CCN(C)CC4
87.9

Specify cell viability for C[C@@H](NCc1cc2ccccc2[nH]1)c1cccc2ccccc12 and stop.
95.5

---

Test system: P12-Ichikawa
protocol text: cell viability relative to DMSO control; higher = less cytotoxic
measurement setup: RPMI 5 mM glucose + 10% dialyzed FBS; 48 h; 0.0632 µM
Kindly supply the reported cell viability values for the records listed here.
Response body: numeric value in %, unit text excluded.

Identify measured cell viability corresponding to CN(c1nccc(=O)[nH]1)C1CCN(c2nc3ccccc3n2Cc2ccc(F)cc2)CC1
125

Return value of cell viability for input CC(C)(C)Cn1c(N)nc2ccc(-c3[nH]c(C(C)(C)C)nc3-c3ccc(F)cc3)nc21 , no commentary.
86.1

Specify reported cell viability for the compound shown: COc1cc(Nc2ncc(F)c(Nc3ccc4c(n3)N(COP(=O)(O)O)C(=O)C(C)(C)O4)n2)cc(OC)c1OC
103

Item FC(F)(F)C1=CC=C2C(SCCCCCO\C3=C\O\C(CN4CCOCC4)=C/C3=O)=CC=NC2=C1 : provide cell viability
130

Identify the reported cell viability for the following entry. CC1(C)Cc2c(sc(NC(=S)NC(=O)c3ccccc3)c2C(=O)O)CO1
115

Retrieve cell viability measured for COc1ccc(CC2c3cc(OC)c(OC)cc3CC[N+]2(C)CCC(=O)OCCCCCOC(=O)CC[N+]2(C)CCc3cc(OC)c(OC)cc3C2Cc2ccc(OC)c(OC)c2)cc1OC (centres undefined) and print it.
93.1

Tell me measured cell viability for Cn1cnc(-c2cc3nccc(Oc4ccc(NC(=S)NC(=O)Cc5ccccc5)cc4F)c3s2)c1 please.
96.9

For the compound O=[N+]([O-])c1ccc(Nc2ccccc2-c2ccccc2)c2nonc12 , give its reported cell viability.
93.8

Recall and state the measured cell viability for C[N+](C)(C)CC(=O)O.[Cl-] .
91.1

Note cell viability for the compound shown: Cn1cc(-c2cnn3c(N)c(Br)c([C@@H]4CCCNC4)nc23)cn1
89.8

State, in one line, measured cell viability of CCc1ccc(C(=O)Nc2cc(CN3CCN(C)CC3)cc(C(F)(F)F)c2)cc1C#Cc1cnc2ccnn2c1
111

Answer with the recorded cell viability of O=[S+]([O-])(O)c1ccc2cc(/N=N/c3cc([S+](=O)([O-])O)c4cccnc4c3O)ccc2c1 only.
114

Indicate its recorded cell viability; the compound in question is CCCC(CCC)C(=O)[O-]
112

Please supply the value of reported cell viability for the item COc1ccc(C(=O)CC(=O)c2ccc(C(C)(C)C)cc2)cc1
110

---

Tested on: P12-Ichikawa
protocol text: cell viability relative to DMSO control; higher = less cytotoxic
measurement setup: HPLM + 10% dialyzed FBS; 48 h; 0.00702 µM
test readout: cell viability (%)
Provide the reading as a plain figure in %.

Please indicate cell viability recorded for O=C1CCC[C@@H]2[C@H]3CCC[N+]4([O-])CCC[C@@H](CN12)[C@@H]34 (some centres undefined)
100

Identify cell viability associated with the compound OC1=CC2=C(C(=O)\C=C(/O2)C3=CC=CC=C3)C(=C1O)O
120

State its cell viability: CCCC(CCC)C(=O)[O-]
103

Report cell viability for CN[C@H]1[C@H](O[C@@H]2[C@H](O[C@@H]3[C@@H](O)[C@@H](O)[C@@H](NC(=N)N)[C@@H](O)[C@H]3NC(=N)N)O[C@H](C)[C@@]2(O)C=O)O[C@@H](CO)[C@@H](O)[C@H]1O
120

Given CC(=O)Oc1cc2c(s1)CCN(C(C(=O)C1CC1)c1ccccc1F)C2.Cl (centres undefined) , respond with its cell viability.
100

Provide measured cell viability value, entry: COc1ccccc1OCCNCC(O)COc1cccc2[nH]c3ccccc3c12 (centres undefined)
124

Indicate the recorded cell viability value for this compound: CC(C[N+](C)(C)C)OC(N)=O (centres undefined)
116

Could you please provide reported cell viability for FC(F)(F)C1=CC=C2C(SCCCCCO\C3=C\O\C(CN4CCOCC4)=C/C3=O)=CC=NC2=C1 ? Thanks!
123

Return cell viability for the following compound: CCc1cccc2c3c([nH]c12)C(CC)(CC(=O)O)OCC3 (centres undefined)
110

---

Test system: NOMO1
protocol text: cell viability relative to DMSO control; higher = less cytotoxic
measurement setup: RPMI 5 mM glucose + 10% dialyzed FBS; 48 h; 15.4 µM
test readout: cell viability (%)
Enter your answer as a number in %; do not include the unit.

# return cell viability of Cc1ccc(NC(=O)Nc2cc(C(F)(F)F)ccc2F)cc1Nc1ccc2c(c1)NC(=O)/C2=C\c1ccc[nH]1 (system: NOMO1)
115

# return cell viability of C/C(=C\c1csc(C)n1)[C@@H]1C[C@@H]2O[C@@H]2CCC[C@H](C)[C@H](O)[C@@H](C)C(=O)C(C)(C)[C@@H](O)CC(=O)O1 (system: NOMO1)
31.1

Name the recorded cell viability of CCCC(CCC)C(=O)[O-] , assay system NOMO1.
110

Lab note: NOMO1 assay, enter cell viability for O=C(NCCCNc1nc(Nc2cccc(NC(=O)N3CCCC3)c2)ncc1I)c1cccs1 here
75.7

Using NOMO1 as the test system, report measured cell viability of C[N]1N=CC2=C1C=C(C(=C2)OC3=CC=C(NC(=O)\C4=C\C=C(\C)N(C4=O)C5=CC=C(F)C=C5)C=C3F)C6=C[NH]N=C6 .
30

# assay system NOMO1: give cell viability of O=C1CCC[C@@H]2[C@H]3CCC[N+]4([O-])CCC[C@@H](CN12)[C@@H]34 (some centres undefined)
29.7

Find the measured cell viability of O=C(O)c1ccc(-c2c[nH]c3ncc(-c4ccccc4)cc23)cc1C1CCCC1 with NOMO1 as test system.
105

With NOMO1 as the test system, provide measured cell viability for this compound: NC1CCC(Nc2nc(Nc3ccc(C(=O)N4CCCCC4)cc3)c3ncn(-c4cccc(F)c4)c3n2)CC1 (centres undefined)
119

Send back NOMO1 cell viability of O=C(C[C@@H]1C/C=C\CCC(=O)O[C@H](c2ccccc2)CNC1=O)NCc1ccc(Cl)cc1 only.
111

Tell me its cell viability on NOMO1: Cn1cnc(-c2cc3nccc(Oc4ccc(NC(=S)NC(=O)Cc5ccccc5)cc4F)c3s2)c1
88.1

Quote NOMO1 cell viability for entry CCN1\C=C(C(O)=O)/C(=O)C2=C1C=C(N3CCN(C)CC3)C(=C2)F .
58.5

With NOMO1 as the test system, provide measured cell viability for this compound: CC(C)(C)Cn1c(N)nc2ccc(-c3[nH]c(C(C)(C)C)nc3-c3ccc(F)cc3)nc21
81.2

Under NOMO1, report cell viability for CN1CCN(Cc2ccc(NC(=O)Nc3ccc(Oc4cc(NC(=O)C5CC5)ncn4)cc3)cc2C(F)(F)F)CC1
3.84

Name the recorded cell viability of O=C(O)[C@@H](c1ccc(OCc2ccc3ccccc3n2)cc1)C1CCCC1 , assay system NOMO1.
100

// output cell viability; input CO[C@H]1/C=C/O[C@@]2(C)Oc3c(C)c(O)c4c(O)c(c(/C=N\N5CCN(C6CCCC6)CC5)c(O)c4c3C2=O)NC(=O)/C(C)=C\C=C\[C@H](C)[C@H](O)[C@@H](C)[C@@H](O)[C@@H](C)[C@H](OC(C)=O)[C@@H]1C ; system NOMO1
3.08

Give reported cell viability for CN1C2=CC(=O)/C(=N/NC(N)=O)C=C2CC1S(=O)(=O)[O-].[Na+] (centres undefined) (NOMO1)
119

GET cell viability where system = NOMO1 and item = OCCNC1CCCc2c1[nH]c1ccc(-c3ccccc3)cc21 (centres undefined)
88.6

Please respond with reported cell viability (system NOMO1) for COc1ccccc1OCCNCC(O)COc1cccc2[nH]c3ccccc3c12 (centres undefined) .
124

Specify the recorded cell viability for CC1=CC=C2\N=C/3N(CC[C@@]3(O)C(=O)C2=C1)C4=CC=CC=C4 , system: NOMO1.
84.9

Data credit: the supplement of paper PMC11451515
